# MEASURED TARGET: Calmodulin-1 (Homo sapiens)
# ASSAY REMARKS: CALM1 binders on microarrays, EGTA buffer, profiling panel, biochemical, small-molecule microarray, Cy5-labelled CALM1 (AID 1111);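 also: labelled calmodulin applied in Tris saline Tween buffer holding calcium plus EGTA and DTT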
# ASSAY CONDITIONS: Cy5-CALM1 binding fluorescence, higher = more signal
OBSERVATION TYPE: composite z-score

{"columns": ["COMPOUND", "composite z-score"],
 "data": [
  ["COc1ccc(C#Cc2ccc3c(c2)[C@]2(C(=O)N3)[C@H](C(=O)NC[C@H](O)c3ccccc3)[C@H]3C(=O)O[C@H](c4ccccc4)[C@H](c4ccccc4)N3[C@@H]2c2ccc(O)cc2)cc1", 1.04],
  ["COC(=O)[C@@]1(Cc2ccc(OC)cc2)[C@@H]2C(=CC(=O)[C@H]2CC(=O)C(=O)N2CCCC2)CN1C(=O)c1ccccc1", 0.946],
  ["COc1ccc([Si](C)(C)[C@H]2[C@H](CCO)O[C@@]3(C(=O)N(Cc4ccc(N(C=O)c5ccccc5)cc4)c4ccccc43)[C@@H]2C)cc1", 0.625],
  ["CC(C)C(=C=CC[C@@H](O)c1ccc(OCCO)cc1)C[C@@H](O)c1ccccn1", -0.315],
  ["COc1cc2c(cc1O)C(C1CC1)N(Cc1sc3ccccc3c1Cl)CC2 (stereo not drawn)", 0.131]
]}

For every item below, please supply its composite z-score.
1. C=CC[C@@]12N=C(c3ccc(OCCCO)cc3)O[C@@H]1c1ccccc1N(C)C2=O
2. CN1C=C(C(=O)OCCS(C)(=O)=O)C(C(=O)OCCS(C)(=O)=O)=CC(c2ccc(CO)cc2)=CC1C1CC1 (stereo not drawn)
3. CN1C(=O)C2C=CC(C(O)C3CC=CCC3)N(N(c3ccccc3)c3ccccc3)C2C1=O (stereo not drawn)

Reply:
1: 0.422; 2: 0.405; 3: -0.549

---

# System: Plasmodium falciparum Sir2 (PF13_0152, Sir2A)
# ASSAY REMARKS: pfSir2 binders on small-molecule microarrays, primary screen, biochemical, small-molecule microarray, 635 nm fluorescence (AID 1098);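 also: score merges spot fluorescence intensity with its signal-to-noise ratio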
# ASSAY CONDITIONS: small-molecule microarray binding, fluorescence 635 nm; higher = more signal
I'd appreciate it if you could supply composite z-score values for the items below.
Answers are plain numbers.

For every item below, please supply its composite z-score.
1. COC(=O)C(CC#Cc1ccc2c(c1)[C@]1(C(=O)N2)[C@H](c2ccc(OCCO)cc2)N2[C@H](c3ccccc3)[C@H](c3ccccc3)OC(=O)[C@H]2[C@@H]1C(=O)N1CCc2cc(OC)c(OC)cc2C1)C(=O)OC
2. CN(C)CCCCCCNC(=O)[C@@H]1C[C@@H]2C(=O)N[C@@H](Cc3ccccc3)C(=O)N2[C@@H]1c1ccc(O)cc1

Reply:
1. 1.47
2. 1.51

For every item below, please supply its composite z-score.
1. COc1ccc(C#Cc2ccc3c(c2)[C@]2(C(=O)N3)[C@H](C(=O)NC[C@H](O)c3ccccc3)[C@H]3C(=O)O[C@H](c4ccccc4)[C@H](c4ccccc4)N3[C@@H]2c2ccc(O)cc2)cc1
2. COC(=O)[C@@]1(CCC(=O)OC(C)(C)C)N=C(c2ccc(OCCCO)cc2)O[C@H]1c1ccccc1N=[N+]=[N-]
3. COc1ccc(CCNC(=O)[C@@H]2c3ccccc3C(=O)N(Cc3ccccc3Cl)[C@H]2c2ccc(CO)cc2)cc1
4. O=C1N(Cc2ccccc2)c2ccccc2[C@@H]2OC(c3ccc(OCCCO)cc3)=N[C@]12CCS(=O)(=O)c1ccccc1

Reply:
1. 1.16
2. 1.13
3. 0.489
4. 0.833
